All values here come from paper PMC9518248.

Test system: mouse fibroblasts L929 cells
ASSAY: Cell viability assay (MTT, ISO 10993-5)
Format: cell-based
SETUP CONDITIONS: 24 h, highest dilution causing 30% or higher destruction of cells
CC30 less than 700 µg/mL is 1; CC30 greater than or equal to 700 µg/mL is -1.

Exercise: # check: CC30 < 700 µg/mL for COc1ccc(-n2c(-c3[nH]cnc3C)n[nH]c2=S)cc1OC [21b]
Solution: 1

Exercise: Input CCc1nc(N)nc(N)c1-c1ccc(Cl)cc1 ; condition: CC30 strictly below 700 µg/mL. Does it hold?
Solution: 1

Exercise: Is the reported CC30 for Cc1nc[nH]c1-c1n[nH]c(=S)n1-c1ccc(N(C)C)cc1 [25b] strictly below 700 µg/mL?
Solution: -1

Exercise: Decide: CC30 of Cc1nc[nH]c1-c1n[nH]c(=S)n1-c1cccc(I)c1 [11b] strictly below 700 µg/mL?
Solution: 1

Exercise: Quick check: CC30 of Cc1nc[nH]c1-c1n[nH]c(=S)n1-c1ccccc1I [10b] under 700 µg/mL?
Solution: -1

Exercise: For this compound, is CC30 lower than 700 µg/mL? Cc1nc[nH]c1-c1n[nH]c(=S)n1-c1ccc(F)cc1
Solution: 1

Exercise: Identify whether the compound Cc1cccc(-n2c(-c3[nH]cnc3C)n[nH]c2=S)c1 [15b] records CC30 below 700 µg/mL.
Solution: 1

Exercise: Would you kindly verify if CC30 of CCN(CC)c1ccc(-n2c(-c3[nH]cnc3C)n[nH]c2=S)cc1 [26b] is strictly less than 700 µg/mL?
Solution: 1

Exercise: Hello, I'm reviewing records and need to know if CC30 of Cc1ccc(-n2c(-c3[nH]cnc3C)n[nH]c2=S)cc1Cl [17b] is below 700 µg/mL. Could you check?
Solution: 1

----------
System: mouse fibroblasts L929 cells
ASSAY: Cell viability assay (MTT, ISO 10993-5)
Format: cell-based
SETUP CONDITIONS: 24 h, highest dilution causing 30% or higher destruction of cells
Protocol: Culture medium RPMI 1640, without phenol red (Biowest, Nuaille, France) supplemented with 10% FBS, 2 mM […] penicillin, 100 μg/mL streptomycin were used. Briefly, 1 × 10^4/well of L929 cells were placed in 96-well plates and incubated for 24 h at 37 °C and 10% CO2. […] The optical density at 570 nm using a multi-mode microplate reader SpectraMax® i3 (Syngen, Taipei City, Taiwan) was recorded. The results were expressed as a percentage of viability compared to untreated cells. […]
1 (yes) if CC30 is below 700 µg/mL. 0 (no) if not; exact matches included in 0 (no).

Record excerpt, results attached:
Cc1nc[nH]c1-c1n[nH]c(=S)n1-c1ccccc1F [1b]
0 (no)
Cc1nc[nH]c1-c1n[nH]c(=S)n1-c1cccc(Cl)c1 [5b]
0 (no)
Cc1nc[nH]c1-c1n[nH]c(=S)n1-c1ccccc1Br [7b]
0 (no)
Nc1ccc(S(=O)(=O)Nc2ncccn2)cc1 [SDZ, sulfadiazine]
0 (no)
Cc1ccccc1-n1c(-c2[nH]cnc2C)n[nH]c1=S [14b]
0 (no)
Cc1nc[nH]c1-c1n[nH]c(=S)n1-c1c(C(C)C)cccc1C(C)C [24b]
1 (yes)
Cc1nc[nH]c1-c1n[nH]c(=S)n1-c1ccc(Cl)cc1 [6b]
1 (yes)
COc1cc(Cc2cnc(N)nc2N)cc(OC)c1OC [TRI, trimethoprim, reference compound]
1 (yes)
CCOc1ccc(-n2c(-c3[nH]cnc3C)n[nH]c2=S)cc1 [22b]
0 (no)
Cc1nc[nH]c1-c1n[nH]c(=S)n1-c1ccc(Br)cc1 [9b]
1 (yes)

Exercise: Does the reported CC30 of the following compound sit strictly below 700 µg/mL? Cc1nc[nH]c1-c1n[nH]c(=S)n1Cc1ccccc1 [27b]
Solution: 1 (yes)

Exercise: Quick check: does Cc1ccc(-n2c(-c3[nH]cnc3C)n[nH]c2=S)cc1 [16b] have CC30 under 700 µg/mL?
Solution: 0 (no)

Exercise: Given Cc1nc[nH]c1-c1n[nH]c(=S)n1-c1ccc(I)cc1 [12b] , is recorded CC30 strictly lower than 700 µg/mL?
Solution: 1 (yes)

Exercise: Strictly below 700 µg/mL in CC30? Cc1nc[nH]c1-c1n[nH]c(=S)n1-c1cccc(Br)c1 [8b]
Solution: 1 (yes)
